Please go through the items and note down their IC50.
# Target Or System: NRAS Q61K (Homo sapiens (Human), UniProt P01111+P62937, Q61K)
# Sequence (P01111 whole entry Q61K, one chain of several): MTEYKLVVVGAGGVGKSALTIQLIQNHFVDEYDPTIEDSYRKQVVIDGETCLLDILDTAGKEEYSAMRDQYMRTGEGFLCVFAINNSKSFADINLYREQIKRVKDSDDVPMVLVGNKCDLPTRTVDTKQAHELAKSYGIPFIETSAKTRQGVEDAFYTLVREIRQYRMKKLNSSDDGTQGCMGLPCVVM
# Assay Details: Ras-Raf disruption/FRET/MOA assay (BRAF RBD, Cyclophilin A)
# Assay type: biochemical

Given item CCn1c(-c2cccnc2[C@H](C)OC)c2c3cc(ccc31)-c1csc(n1)C[C@H](NC(=O)[C@H](C(C)C)N(C)C(=O)N1CC[C@@H]1CN)C(=O)N1CCC[C@H](N1)C(=O)OCC(C)(C)C2 , the value recorded as its IC50 is 0.1 to 1 µM

// CCn1c(-c2cccnc2[C@H](C)OC)c2c3cc(ccc31)-c1csc(n1)C[C@H](NC(=O)[C@H](C(C)C)N(C)C(=O)N1CC[C@@]3(CCNC3=O)C1)C(=O)N1CCC[C@H](N1)C(=O)OCC(C)(C)C2 : IC50 value = 0.1 to 1 µM

CCn1c(-c2cccnc2[C@H](C)OC)c2c3cc(ccc31)-c1csc(n1)C[C@H](NC(=O)[C@H](C(C)C)N(C)C(=O)N1CCC[C@@H]1CN(C)C)C(=O)N1CCC[C@H](N1)C(=O)OCC(C)(C)C2 yielded IC50 of 1 to 10 µM

Form: compound = CCn1c(-c2cccnc2[C@H](C)OC)c2c3cc(ccc31)-c1csc(n1)C[C@H](NC(=O)[C@H](C(C)C)N(C)C(=O)N(C)C[C@H]1CCCN1C)C(=O)N1CCC[C@H](N1)C(=O)OCC(C)(C)C2 ; IC50 = 1 to 10 µM

Looking up CCn1c(-c2cccnc2[C@H](C)OC)c2c3cc(ccc31)-c1csc(n1)C[C@H](NC(=O)[C@H](C(C)C)N(C)C(=O)N1CC3(CCCN(C)C3=O)C1)C(=O)N1CCC[C@H](N1)C(=O)OCC(C)(C)C2 , I found its IC50 recorded as 0.1 to 1 µM

get_value(item= CCn1c(-c2cccnc2[C@H](C)OC)c2c3cc(ccc31)-c1csc(n1)C[C@H](NC(=O)[C@H](C(C)C)N(C)C(=O)N1CC[C@@H]3CN(C)C[C@@H]31)C(=O)N1CCC[C@H](N1)C(=O)OCC(C)(C)C2 , readout=IC50) returns 1 to 10 µM

Looking up CCn1c(-c2cccnc2[C@H](C)OC)c2c3cc(ccc31)-c1csc(n1)C[C@H](NC(=O)N1CCOCC1)C(=O)N1CCC[C@H](N1)C(=O)OCC(C)(C)C2 , I found its IC50 recorded as 0.1 to 1 µM

IC50 reading for CCn1c(-c2cccnc2[C@H](C)OC)c2c3cc(ccc31)-c1csc(n1)C[C@H](NC(=O)[C@H](C(C)C)N(C)C(=O)N1CCC[C@H]1c1ccccc1)C(=O)N1CCC[C@H](N1)C(=O)OCC(C)(C)C2 : 1 to 10 µM

IC50 for CCn1c(-c2cccnc2[C@H](C)OC)c2c3cc(ccc31)-c1csc(n1)C[C@H](NC(=O)[C@H](C(C)C)N(C)C(=O)N1CCCC13CN(C)C3)C(=O)N1CCC[C@H](N1)C(=O)OCC(C)(C)C2 is 0.1 to 1 µM

====

# Target Or System: KRAS G13D (Homo sapiens (Human), UniProt P01116+P62937, G13D)
# Sequence (P01116 other isoform, or with tags, fused parts or gaps G13D): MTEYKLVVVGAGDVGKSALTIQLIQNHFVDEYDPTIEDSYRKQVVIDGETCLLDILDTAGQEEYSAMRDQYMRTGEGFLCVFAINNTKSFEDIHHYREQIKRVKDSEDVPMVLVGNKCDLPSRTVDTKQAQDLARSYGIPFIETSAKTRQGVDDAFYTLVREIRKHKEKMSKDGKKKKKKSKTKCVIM
# Sequence (P62937 whole entry): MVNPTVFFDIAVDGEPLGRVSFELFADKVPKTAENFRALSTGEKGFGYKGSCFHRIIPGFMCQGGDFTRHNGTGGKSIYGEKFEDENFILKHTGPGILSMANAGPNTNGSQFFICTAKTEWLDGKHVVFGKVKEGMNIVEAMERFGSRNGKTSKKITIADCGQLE
# Assay Details: Ras-Raf disruption/FRET/MOA assay (BRAF RBD, Cyclophilin A)
# Format: biochemical
# Measurement Setup: read-out: KRAS G13D FRET data IC50
pIC50: −log10 of the molar value.
Measured Attribute: pIC50

// pIC50 value for CCn1c(-c2cccnc2[C@H](C)OC)c2c3cc(ccc31)-c1csc(n1)C[C@H](NC(=O)[C@H](C(C)C)N(C)C(=O)N1CC(N)C1)C(=O)N1CCC[C@H](N1)C(=O)OCC(C)(C)C2 : 6.00 to 7.00

// recorded pIC50 for CCn1c(-c2cccnc2[C@H](C)OC)c2c3cc(ccc31)-c1cc(O)cc(c1)C[C@H](NC(=O)[C@H]1C[C@@H]1C)C(=O)N1CCC[C@H](N1)C(=O)OCC(C)(C)C2 : 5.00 to 6.00

The compound identified as CCn1c(-c2cccnc2[C@H](C)OC)c2c3cc(ccc31)-c1csc(n1)C[C@H](NC(=O)[C@H](C(C)C)N(C)C(=O)N1CCCC[C@H](N(C)C)C1)C(=O)N1CCC[C@H](N1)C(=O)OCC(C)(C)C2 registered its pIC50 at 6.00 to 7.00

Kindly note the recorded pIC50 for CCn1c(-c2cccnc2[C@H](C)OC)c2c3cc(ccc31)-c1csc(n1)C[C@H](NC(=O)[C@H](C(C)C)N(C)C(=O)N(C)C[C@H]1CCN1C)C(=O)N1CCC[C@H](N1)C(=O)OCC(C)(C)C2 , which is 6.00 to 7.00

Reported pIC50 ( CCn1c(-c2cnccc2COC)c2c3cc(ccc31)-c1cc(O)cc(c1)C[C@H](NC(=O)[C@H](C(C)C)N(C)C(=O)C1CN(C)C1)C(=O)N1CCC[C@H](N1)C(=O)OCC(C)(C)C2 ) = 7.00 to 8.00

Just so you know, measured pIC50 for CCn1c(-c2cccnc2[C@H](C)OC)c2c3cc(ccc31)-c1cccc(c1)C[C@H](NC(=O)[C@H](C(C)C)N(C)C(=O)[C@H]1CCN(C)C1)C(=O)N1CCC[C@H](N1)C(=O)OCC(C)(C)C2 came out at 5.00 to 6.00

Lab note: CCn1c(-c2cccnc2[C@H](C)OC)c2c3cc(ccc31)-c1cccc(c1)C[C@H](NC(=O)[C@H](C(C)C)N(C)C(=O)[C@H]1OCC[C@H]1c1ccccc1)C(=O)N1CCC[C@H](N1)C(=O)OCC(C)(C)C2 gave pIC50 of < 5.00

Record CCn1c(-c2cccnc2[C@H](C)OC)c2c3cc(ccc31)-c1csc(n1)C[C@H](NC(=O)[C@H](C(C)C)N(C)C(=O)N1CCC13CCS(=O)(=O)CC3)C(=O)N1CCC[C@H](N1)C(=O)OCC(C)(C)C2 . Reported pIC50: 5.00 to 6.00

Value of pIC50 reported for the compound CCn1c(-c2cccnc2[C@H](C)OC)c2c3cc(ccc31)-c1cc(O)cc(c1)C[C@H](NC(=O)[C@H](C(C)C)N(C)C(=O)C1CCc3ncccc3C1)C(=O)N1CCC[C@H](N1)C(=O)OCC(C)(C)C2 (stereo partly drawn) is 7.00 to 8.00

Record CCn1c(-c2cccnc2[C@H](C)OC)c2c3cc(ccc31)-c1csc(n1)C[C@H](NC(=O)[C@H](C(C)C)N(C)C(=O)[C@H]1CCN(S(C)(=O)=O)C1)C(=O)N1CCC[C@H](N1)C(=O)OCC(C)(C)C2 , field pIC50: < 5.00

For reference, reported pIC50 for CCn1c(-c2cccnc2[C@H](C)OC)c2c3cc(ccc31)-c1csc(n1)C[C@H](NC(=O)[C@H](C(C)C)N(C)C(=O)N1CCC13COC3)C(=O)N1CCC[C@H](N1)C(=O)OCC(C)(C)C2 stands at 6.00 to 7.00

What the record says about CCn1c(-c2cccnc2[C@H](C)OC)c2c3cc(ccc31)-c1csc(n1)C[C@H](NC(=O)[C@H](C(C)C)N(C)C(=O)N(C)[C@H]1CCCN(C)C1)C(=O)N1CCC[C@H](N1)C(=O)OCC(C)(C)C2 : pIC50 is 6.00 to 7.00

Measured pIC50, CCn1c(-c2cccnc2[C@H](C)OC)c2c3cc(ccc31)-c1csc(n1)C[C@H](NC(=O)[C@H](C(C)C)N(C)C(=O)N1CCC1)C(=O)N1CCC[C@H](N1)C(=O)OCC(C)(C)C2 : 6.00 to 7.00

CCn1c(-c2cccnc2[C@H](C)OC)c2c3cc(ccc31)-c1cc(O)cc(c1)C[C@H](NC(=O)[C@H](C(C)C)N(C)C(=O)[C@H]1CCC(=O)O1)C(=O)N1CCC[C@H](N1)C(=O)OCC(C)(C)C2 yielded pIC50 of 7.00 to 8.00

The compound identified as CCn1c(-c2cccnc2[C@H](C)OC)c2c3cc(ccc31)-c1csc(n1)C[C@H](NC(=O)[C@H](C(C)C)N(C)C(=O)N1CC([C@H](CO)OC)C1)C(=O)N1CCC[C@H](N1)C(=O)OCC(C)(C)C2 registered its pIC50 at 6.00 to 7.00

Note to self: pIC50 recorded for CCn1c(-c2cnccc2COC)c2c3cc(ccc31)-c1cc(O)cc(c1)C[C@H](NC(=O)[C@H](C(C)C)N(C)C(=O)[C@H]1CCN(C3CCOCC3)C1)C(=O)N1CCC[C@H](N1)C(=O)OCC(C)(C)C2 was 7.00 to 8.00

Memo: CCn1c(-c2cccnc2[C@H](C)OC)c2c3cc(ccc31)-c1csc(n1)C[C@H](NC(=O)N1CCC1)C(=O)N1CCC[C@H](N1)C(=O)OCC(C)(C)C2 [Compound A369] , reported pIC50: 6.00 to 7.00

Lab note: CCn1c(-c2cccnc2[C@H](C)OC)c2c3cc(ccc31)-c1cc(O)cc(c1)C[C@H](NC(=O)[C@H](C(C)C)N(C)C(=O)C13CCC(CO1)C3)C(=O)N1CCC[C@H](N1)C(=O)OCC(C)(C)C2 gave pIC50 of 6.00 to 7.00
